- experimental-protocol: Stability of the aqueous contrast agent solution at room temperature, relative content by HPLC
- Type: physicochemical
- experimental-context: aqueous solution 0.1 mg/mL, 2 h

# smiles-code, decomposition rate %
measured = [
    ("CC1(C)C(/C=C/C2=C(Oc3ccc(CCC(=O)NCCOCCOCCNC(=O)CN4CCN(CC(=O)[O-])CCN(CC(=O)[O-])CCN(CC(=O)[O-])CC4)cc3)C(=C/C=C3/N(CCCCS(=O)(=O)O)c4ccc5ccccc5c4C3(C)C)/CCC2)=[N+](CCCCS(=O)(=O)O)c2ccc3ccccc3c21.[Gd+3]", "<LOQ"),
    ("CC1(C)C(=CC=C2CCCC(C=CC3=[N+](CCCCS(=O)(=O)O)c4ccc5ccccc5c4C3(C)C)=C2NCCCOCCOCCOCCCNC(=O)CN2CCN(CC(=O)[O-])CCN(CC(=O)[O-])CCN(CC(=O)[O-])CC2)N(CCCCS(=O)(=O)O)c2ccc3ccccc3c21.[Gd+3]", "5.9%"),
    ("CC1(C)C(/C=C/C2=C(Oc3ccc(CCC(=O)NCCOCCOCCOCCNC(=O)CN4CCN(CC(=O)[O-])CCN(CC(=O)[O-])CCN(CC(=O)[O-])CC4)cc3)C(=C/C=C3/N(CCCCS(=O)(=O)O)c4ccc5ccccc5c4C3(C)C)/CCC2)=[N+](CCCCS(=O)(=O)O)c2ccc3ccccc3c21.[Gd+3]", "<LOQ"),
    ("CC1(C)C(/C=C/C2=C(Oc3ccc(CCC(=O)NCCCCCCCCCCNC(=O)CN4CCN(CC(=O)[O-])CCN(CC(=O)[O-])CCN(CC(=O)[O-])CC4)cc3)C(=C/C=C3/N(CCCCS(=O)(=O)O)c4ccc5ccccc5c4C3(C)C)/CCC2)=[N+](CCCCS(=O)(=O)O)c2ccc3ccccc3c21.[Gd+3]", "<LOQ"),
]

====

- experimental-protocol: Stability of the aqueous contrast agent solution at room temperature, relative content by HPLC
- Type: physicochemical
- experimental-context: aqueous solution 0.1 mg/mL, 24 h

# compound, decomposition rate %
measured = [
    ("CC1(C)C(=CC=C2CCCC(C=CC3=[N+](CCCCS(=O)(=O)O)c4ccc5ccccc5c4C3(C)C)=C2NCCCOCCOCCOCCCNC(=O)CN2CCN(CC(=O)[O-])CCN(CC(=O)[O-])CCN(CC(=O)[O-])CC2)N(CCCCS(=O)(=O)O)c2ccc3ccccc3c21.[Gd+3] [PL-001]", "40.0%"),
    ("CC1(C)C(/C=C/C2=C(Oc3ccc(CCC(=O)NCCOCCOCCNC(=O)CN4CCN(CC(=O)[O-])CCN(CC(=O)[O-])CCN(CC(=O)[O-])CC4)cc3)C(=C/C=C3/N(CCCCS(=O)(=O)O)c4ccc5ccccc5c4C3(C)C)/CCC2)=[N+](CCCCS(=O)(=O)O)c2ccc3ccccc3c21.[Gd+3] [PL-004]", "<LOQ"),
    ("CC1(C)C(/C=C/C2=C(Oc3ccc(CCC(=O)NCCCCCCCCCCNC(=O)CN4CCN(CC(=O)[O-])CCN(CC(=O)[O-])CCN(CC(=O)[O-])CC4)cc3)C(=C/C=C3/N(CCCCS(=O)(=O)O)c4ccc5ccccc5c4C3(C)C)/CCC2)=[N+](CCCCS(=O)(=O)O)c2ccc3ccccc3c21.[Gd+3] [PL-003]", "<LOQ"),
    ("CC1(C)C(/C=C/C2=C(Oc3ccc(CCC(=O)NCCOCCOCCOCCNC(=O)CN4CCN(CC(=O)[O-])CCN(CC(=O)[O-])CCN(CC(=O)[O-])CC4)cc3)C(=C/C=C3/N(CCCCS(=O)(=O)O)c4ccc5ccccc5c4C3(C)C)/CCC2)=[N+](CCCCS(=O)(=O)O)c2ccc3ccccc3c21.[Gd+3] [PL-002]", "<LOQ"),
]
